# Test system: T98G glioblastoma cells
# assay-comment: Apoptosis assay by sub-G0/G1 fraction estimation (apoptotic nuclear fragmentation, PI staining, FACS)
# Format: cell-based, human
# measurement-setup: 5 μM drug; T98G transfected with PME-1 specific dsRNA
# Experimental: The percentage of the sub-G0/G1 fraction containing fragmented nuclei stained with Propidium iodide (P1) was taken as a measure of apoptotic cells. 3.5-4×10^4 cells were plated in 24-well plates, transfected with siRNA for 48 hrs, and then treated with indicated concentration of test compounds in fresh media. […] The flow cytometric analysis of PI stained nuclei was performed and the recorded data was analyzed using a FACScan flow cytometer and software (Becton Dickinson) respectively. […]
quantity-name: Potentiation % (apoptotic nuclear fragmentation)

Would you please look over these solved cases?
The compound C[C@]12O[C@H](C[C@]1(O)CO)n1c3ccccc3c3c4c(c5c6ccccc6n2c5c31)CNC4=O showed Potentiation % (apoptotic nuclear fragmentation) equal to 75-80%

GET /value?item= O=C1NCc2c1c1c3ccccc3[nH]c1c1[nH]c3ccccc3c21 [K252c] &field=Potentiation % (apoptotic nuclear fragmentation) returns 15-20%

Now consider a different compound.
Short answer for O=C1NC(=O)c2c1c1c3ccccc3[nH]c1c1[nH]c3ccccc3c21 : Potentiation % (apoptotic nuclear fragmentation) was 5-10%

----------
# Test system: T98G glioblastoma cells
# assay-comment: Apoptosis assay by sub-G0/G1 fraction estimation (apoptotic nuclear fragmentation, PI staining, FACS)
# Assay type: cell-based, human
# measurement-setup: 5 μM drug; T98G transfected with PME-1 specific dsRNA
As shown below, each of these compounds has a reported Potentiation % (apoptotic nuclear fragmentation) value.

Result for COC(=O)[C@@]1(O)C[C@H]2O[C@]1(C)n1c3ccccc3c3c4c(c5c6ccccc6n2c5c31)C(=O)NC4 [K252a] , tested on T98G glioblastoma cells, Potentiation % (apoptotic nuclear fragmentation): 80-90%

Record Cn1cc(C2=C(c3cn(C4CCN(Cc5ccccn5)CC4)c4ccccc34)C(=O)NC2=O)c2ccccc21 / T98G glioblastoma cells, Potentiation % (apoptotic nuclear fragmentation) recorded as 15-20%

With T98G glioblastoma cells as the test system, Cn1c2ccccc2c2c3c(c4c5ccccc5n(CCC#N)c4c21)CNC3=O showed Potentiation % (apoptotic nuclear fragmentation) of 15-20%

Now consider a different compound.
Lab entry: T98G glioblastoma cells assay, compound CN[C@@H]1C[C@H]2O[C@@](C)([C@@H]1OC)n1c3ccccc3c3c4c(c5c6ccccc6n2c5c31)C(=O)N[C@@H]4O , Potentiation % (apoptotic nuclear fragmentation) = 80-90%

----------
# System: T98G glioblastoma cells
# assay-comment: Apoptosis assay by sub-G0/G1 fraction estimation (apoptotic nuclear fragmentation, PI staining, FACS)
# Format: cell-based, human
# measurement-setup: 5 μM drug; T98G transfected with PME-1 specific dsRNA
Reported Potentiation % (apoptotic nuclear fragmentation) values follow for various compounds

Completed entries (count: 3):
Query CO[C@@H]1[C@H](N(C)C(=O)c2ccccc2)C[C@H]2O[C@]1(C)n1c3ccccc3c3c4c(c5c6ccccc6n2c5c31)C(=O)NC4 on T98G glioblastoma cells; Potentiation % (apoptotic nuclear fragmentation) returned: 75-80%

The observed Potentiation % (apoptotic nuclear fragmentation) for O=C1NC(=O)c2c1c1c3ccccc3n3c1c1c2c2ccccc2n1C1CCC3O1 when tested with T98G glioblastoma cells stands at 25-30%

Measured Potentiation % (apoptotic nuclear fragmentation) (T98G glioblastoma cells), entry Cn1cc(C2=C(c3cn(CCCSC(=N)N)c4ccccc34)C(=O)NC2=O)c2ccccc21 : 5-10%

Others:
Item COC1C(CO)OC(n2c3c(Cl)cccc3c3c4c(c5c6cccc(Cl)c6[nH]c5c32)C(=O)NC4=O)C(O)C1O (stereo not shown) ; assay system T98G glioblastoma cells; Potentiation % (apoptotic nuclear fragmentation) reported as 5-10%
